target: Brd4 bromodomain 1 (BRD4(1)) (Homo sapiens); test: Inhibition of tetra-acetylated histone H4 binding to Brd4 bromodomain 1, measured by FRET (HTRF); parameters: made in house; host or cells: E. coli BL21(DE3); conditions: 2 h at room temperature
quantity-name: IC50

Look over these answered cases.
Problem: State its IC50 for this compound: Cc1nc2c(-c3cccc(C#N)c3C)cc(-c3c(C)noc3C)cc2[nH]1 [Example Compound 123]
Result: ≤ 300 nM

Problem: State its IC50 for this compound: Cc1nc2c(-c3csnc3C)cc(-c3c(C)noc3C)cc2[nH]1 [Example Compound 52]
Result: ≤ 300 nM

Problem: State its IC50 for this compound: Cc1nc2c(-c3ccccc3S(C)(=O)=O)cc(-c3c(C)noc3C)cc2[nH]1 [Example Compound 69]
Result: ≤ 300 nM

Continuing:
Problem: State its IC50 for this compound: Cc1ccc(C(=O)N2CCCC2)cc1-c1cc(-c2c(C)noc2C)cc2[nH]c(N3CCCC3)nc12 [Example Compound 218]
Result: ≤ 300 nM

Problem: State its IC50 for this compound: Cc1noc(C)c1-c1cc(-c2c(C)nn(C)c2C)c2[nH]c(S(C)(=O)=O)nc2c1 [Example Compound 195]
Result: ≤ 300 nM

Problem: State its IC50 for this compound: Cc1nc2c(N3CCOCC3C)cc(-c3c(C)noc3C)cc2[nH]1 (stereo not shown) [Example Compound 177]
Result: ≤ 300 nM

Problem: State its IC50 for this compound: Cc1noc(C)c1-c1cc(-c2c(C)noc2C)c2nccn2c1 [Example Compound 8]
Result: 300 to 3000 nM

Problem: State its IC50 for this compound: Cc1noc(C)c1-c1cc(-c2c(C)noc2C)c2nc(N3CCOCC3)[nH]c2c1 [Example Compound 226]
Result: ≤ 300 nM

Problem: State its IC50 for this compound: COc1ccc(C)cc1-c1cc(-c2c(C)noc2C)cc2[nH]cnc12 [Example Compound 51]
Result: ≤ 300 nM

Problem: State its IC50 for this compound: Cc1nc2c(Oc3cc(C#N)ccc3C)cc(-c3c(C)noc3C)cc2[nH]1 [Example Compound 172]
Result: ≤ 300 nM

Problem: State its IC50 for this compound: Cc1noc(C)c1-c1cc(-c2cccc(C#N)c2)c2nc[nH]c2c1 [Example Compound 2]
Result: ≤ 300 nM

Problem: State its IC50 for this compound: Cc1noc(C)c1-c1cc(NCc2ccccn2)c2nc[nH]c2c1 [Example Compound 47]
Result: ≤ 300 nM

Problem: State its IC50 for this compound: COc1ncccc1-c1cc(-c2c(C)noc2C)cc2[nH]c(C)nc12 [Example Compound 118]
Result: ≤ 300 nM

###

system: Human AML MV-4-11 cells; assay: Inhibition of cell proliferation in MV4-11 cells (CellTiter Aqueous One); format: cell-based; details: 72 h
quantity-name: Cell Proliferation activity

Problem: State its Cell Proliferation activity for this compound: `Cc1noc(C)c1-c1cc(-c2ccnn2C)cc2[nH]cnc12`
Result: Not active

Problem: State its Cell Proliferation activity for this compound: `Cc1noc(C)c1-c1cc(-c2c(C)noc2C)c2nccn2c1`
Result: Not active

Problem: State its Cell Proliferation activity for this compound: `Cc1nc2c(Oc3cc(C(=O)O)ccc3C)cc(-c3c(C)noc3C)cc2[nH]1`
Result: Not active

Problem: State its Cell Proliferation activity for this compound: `Cc1noc(C)c1-c1cc(-c2ccc[nH]c2=O)c2nc[nH]c2c1`
Result: Not active

Problem: State its Cell Proliferation activity for this compound: `Cc1noc(C)c1-c1cc(-c2c(C)noc2C)c2nn[nH]c2c1`
Result: Not active

Problem: State its Cell Proliferation activity for this compound: `Cc1nc2c(-c3csnc3C)cc(-c3csnc3C)cc2[nH]1`
Result: Not active

Problem: State its Cell Proliferation activity for this compound: Cc1nc2c(N3C(=O)CCC3C)cc(-c3c(C)noc3C)cc2[nH]1 (stereo not shown)
Result: Not active

Problem: State its Cell Proliferation activity for this compound: `Cc1nc2c(N3CCC3=O)cc(-c3c(C)noc3C)cc2[nH]1`
Result: Not active

Problem: State its Cell Proliferation activity for this compound: `Cc1noc(C)c1-c1cc(Nc2ccccc2)c2nncn2c1`
Result: Not active

Could you now look at the following compound, please?
Problem: State its Cell Proliferation activity for this compound: `Cc1noc(C)c1-c1cc(-c2cncnc2)c2nc[nH]c2c1`
Result: Not active

Entry source: patent US9999616B2
